Recorded values, source ChEMBL document CHEMBL4732263.

protocol: Volume of distribution at steady state in Sprague-Dawley rat plasma at 2.9 mg/kg, iv up to 24 hrs by LC-MS analysis
Type: ADME, organism-based
condition notes: read-out: Vdss
measured metric: Vd (L/kg)
Answer with a number only, understood to be in L/kg.

[Q] Specify reported Vd for the compound shown: `COc1ncc(-c2nc(C(=O)NC(=N)N)c(N)nc2N)cn1`
[A] 3.4

* * *

System: Sodium channel protein type 5 subunit alpha (Homo sapiens, UniProt Q14524) | Read-out: IC50
Sequence (Q14524 whole entry): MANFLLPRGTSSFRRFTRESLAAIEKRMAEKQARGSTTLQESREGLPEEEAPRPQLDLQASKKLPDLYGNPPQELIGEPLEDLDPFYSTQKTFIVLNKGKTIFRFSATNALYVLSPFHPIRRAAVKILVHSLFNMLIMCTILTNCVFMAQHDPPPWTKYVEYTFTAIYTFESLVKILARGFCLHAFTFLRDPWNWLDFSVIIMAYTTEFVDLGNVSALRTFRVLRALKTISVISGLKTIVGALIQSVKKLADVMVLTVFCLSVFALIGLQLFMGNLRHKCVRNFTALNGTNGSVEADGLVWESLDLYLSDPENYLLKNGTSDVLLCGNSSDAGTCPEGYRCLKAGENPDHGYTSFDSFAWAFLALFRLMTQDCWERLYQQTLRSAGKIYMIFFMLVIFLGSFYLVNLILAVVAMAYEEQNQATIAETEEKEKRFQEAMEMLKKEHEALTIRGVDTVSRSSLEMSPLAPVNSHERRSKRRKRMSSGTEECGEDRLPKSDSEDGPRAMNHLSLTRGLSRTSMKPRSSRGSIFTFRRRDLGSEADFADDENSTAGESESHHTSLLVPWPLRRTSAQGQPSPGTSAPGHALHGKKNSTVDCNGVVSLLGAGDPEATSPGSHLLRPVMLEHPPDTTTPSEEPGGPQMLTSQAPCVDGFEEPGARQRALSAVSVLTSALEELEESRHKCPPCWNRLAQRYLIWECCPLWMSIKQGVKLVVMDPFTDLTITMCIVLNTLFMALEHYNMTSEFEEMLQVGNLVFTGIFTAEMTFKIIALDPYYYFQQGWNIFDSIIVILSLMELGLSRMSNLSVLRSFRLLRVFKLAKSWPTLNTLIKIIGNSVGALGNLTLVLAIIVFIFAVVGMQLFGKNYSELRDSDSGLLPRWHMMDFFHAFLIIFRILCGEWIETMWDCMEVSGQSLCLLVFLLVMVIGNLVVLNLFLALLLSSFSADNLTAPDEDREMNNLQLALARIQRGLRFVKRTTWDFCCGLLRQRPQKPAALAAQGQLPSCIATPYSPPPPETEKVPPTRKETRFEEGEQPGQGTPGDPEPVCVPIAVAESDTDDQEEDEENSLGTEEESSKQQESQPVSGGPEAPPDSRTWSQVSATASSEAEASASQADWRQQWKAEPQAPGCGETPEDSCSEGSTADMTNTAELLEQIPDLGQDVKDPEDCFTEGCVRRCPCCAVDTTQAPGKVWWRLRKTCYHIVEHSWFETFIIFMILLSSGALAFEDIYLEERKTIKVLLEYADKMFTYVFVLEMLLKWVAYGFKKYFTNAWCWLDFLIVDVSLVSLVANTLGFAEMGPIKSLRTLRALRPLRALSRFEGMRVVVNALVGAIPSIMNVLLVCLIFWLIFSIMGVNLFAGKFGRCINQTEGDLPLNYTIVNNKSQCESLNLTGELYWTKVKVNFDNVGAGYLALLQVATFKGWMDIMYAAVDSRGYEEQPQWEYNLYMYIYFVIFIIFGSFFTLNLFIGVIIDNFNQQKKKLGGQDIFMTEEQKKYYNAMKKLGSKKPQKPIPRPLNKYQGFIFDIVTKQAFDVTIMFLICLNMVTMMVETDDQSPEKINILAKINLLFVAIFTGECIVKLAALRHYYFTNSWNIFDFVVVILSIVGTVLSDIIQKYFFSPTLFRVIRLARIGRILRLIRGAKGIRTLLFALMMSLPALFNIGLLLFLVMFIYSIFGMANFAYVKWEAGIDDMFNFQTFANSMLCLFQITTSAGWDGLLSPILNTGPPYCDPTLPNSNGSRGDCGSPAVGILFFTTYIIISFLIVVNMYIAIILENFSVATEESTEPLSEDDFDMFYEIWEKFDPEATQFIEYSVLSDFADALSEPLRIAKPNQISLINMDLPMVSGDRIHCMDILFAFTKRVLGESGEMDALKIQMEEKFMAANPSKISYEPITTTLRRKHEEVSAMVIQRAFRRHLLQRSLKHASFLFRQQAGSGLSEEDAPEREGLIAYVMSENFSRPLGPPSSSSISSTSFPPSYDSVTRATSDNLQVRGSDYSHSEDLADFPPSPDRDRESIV
Answer with a number only, understood to be in µM.

compound | observed measurement
N=C(N)NC(=O)c1nc(Cl)c(N2CCCCCC2)nc1N [N,N-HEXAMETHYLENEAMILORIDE] | 30

Turning now to a further record.
[Q] Check Sodium channel protein type 5 subunit alpha (Homo sapiens, UniProt Q14524) data and give IC50 for `N=C(N)NC(=O)c1nc(-c2cc3ccccc3o2)c(N)nc1N` .
[A] 22
